The measurements presented in this section are drawn from the supplement of paper PMC8728848.

// glycan array binding signal (z-score) lookup, one value per entry
- Target of assay: Gal(b1-4)GlcNAc(b1-2)[Gal(b1-4)GlcNAc(b1-6)]Man(a1-6)[Gal(b1-4)GlcNAc(b1-2)Man(a1-3)]Man(b1-4)GlcNAc(b1-4)[Fuc(a1-6)]GlcNAc
- Assay remarks: glycan array binding signal (z-score within array); higher = stronger binding
- Assay context: glycan notation: IUPAC condensed, linker removed
Many of the other results were omitted from the sample, so the strongest signals are more common in it than they were.

• ArathEULS3 TAP (Arabidopsis thaliana) (protein) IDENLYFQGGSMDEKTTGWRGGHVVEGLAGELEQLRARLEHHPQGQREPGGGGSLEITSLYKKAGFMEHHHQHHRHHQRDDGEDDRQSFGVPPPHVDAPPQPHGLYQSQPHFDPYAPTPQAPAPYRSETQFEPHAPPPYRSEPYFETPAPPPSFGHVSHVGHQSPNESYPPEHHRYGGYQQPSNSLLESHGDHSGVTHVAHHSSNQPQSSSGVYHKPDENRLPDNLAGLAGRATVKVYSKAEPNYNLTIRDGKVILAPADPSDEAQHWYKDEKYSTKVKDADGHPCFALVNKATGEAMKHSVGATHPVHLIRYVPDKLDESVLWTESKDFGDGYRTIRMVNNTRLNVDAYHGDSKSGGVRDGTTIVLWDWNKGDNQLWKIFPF = 0.941

Read the next record carefully.
Req: Entry rCnSL-proB (Clitocybe nebularis) (protein) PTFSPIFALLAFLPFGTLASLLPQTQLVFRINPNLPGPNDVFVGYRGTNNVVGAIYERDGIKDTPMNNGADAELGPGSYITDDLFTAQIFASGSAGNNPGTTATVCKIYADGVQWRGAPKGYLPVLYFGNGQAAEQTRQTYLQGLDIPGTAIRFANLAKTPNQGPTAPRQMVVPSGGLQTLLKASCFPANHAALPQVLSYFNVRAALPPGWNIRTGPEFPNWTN has what glycan array binding signal (z-score)?
Resp: 4.49
